Recorded IC50 values for a group of molecules are listed next.
- target_of_assay: Kv1.5 channels from humans (Homo sapiens, UniProt P22460)
- Construct: expressed in transfected cells; host or cells: Xenopus laevis oocytes injected with in vitro synthesized RNA
- Sequence (P22460 whole entry): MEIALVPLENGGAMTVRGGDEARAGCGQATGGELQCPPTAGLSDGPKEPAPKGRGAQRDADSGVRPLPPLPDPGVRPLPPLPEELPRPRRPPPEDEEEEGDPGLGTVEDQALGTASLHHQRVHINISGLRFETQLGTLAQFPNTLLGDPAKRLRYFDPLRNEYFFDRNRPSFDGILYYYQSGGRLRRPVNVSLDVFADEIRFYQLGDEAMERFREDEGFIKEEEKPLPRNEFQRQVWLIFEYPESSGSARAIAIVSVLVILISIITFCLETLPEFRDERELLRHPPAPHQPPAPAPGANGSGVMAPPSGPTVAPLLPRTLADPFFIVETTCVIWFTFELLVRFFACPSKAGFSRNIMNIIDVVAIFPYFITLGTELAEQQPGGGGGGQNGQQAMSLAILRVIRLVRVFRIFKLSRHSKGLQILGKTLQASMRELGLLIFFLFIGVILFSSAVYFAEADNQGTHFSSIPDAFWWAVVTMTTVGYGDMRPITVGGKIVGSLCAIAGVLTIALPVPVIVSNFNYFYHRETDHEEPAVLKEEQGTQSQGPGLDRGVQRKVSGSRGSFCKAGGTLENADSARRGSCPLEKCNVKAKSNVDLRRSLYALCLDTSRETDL
- experiment_description: Kv1.5 currents in Xenopus oocytes, two-microelectrode voltage clamp
- Type: cell-based
Please respond with the number in µM and leave the unit unwritten.

Here's what some known entries look like.
smiles_input	target_of_assay	measurement_label	unit_text	obs_value
CC(C)CCNC(=O)c1ccccc1-c1ccccc1[C@H](C)NC(=O)O[C@@H](C)c1ccccc1	Kv1.5 channels from humans (Homo sapiens, UniProt P22460)	IC50	µM	1.8
C[C@@H](OC(=O)NCc1ccccc1-c1ccccc1C(=O)NCc1ccc(F)cc1F)c1ccccc1	Kv1.5 channels from humans (Homo sapiens, UniProt P22460)	IC50	µM	4.4

Summary for this molecule, C[C@H](OC(=O)NCc1ccccc1-c1ccccc1C(=O)NCCc1cccnc1)c1ccccc1 : IC50 is 0.9

So, O=C(NCc1ccccc1-c1ccccc1C(=O)NCCc1ccncc1)OCc1ccccc1 ? Its IC50 was 1.2
